- Assay Method Text: Inhibition of human IL-17A binding to recombinant human Fc-tagged IL-17RA preincubated with IL-17A for 30 mins followed by receptor addition and measured after 90 mins by AlphaLISA plate reader analysis
Outcome Measure: IC50 (nM)
Report only the number, with the unit nM understood.

Answered examples (5):
[
  {
    "Molecule": "C[C@H]1CC[C@H]([C@H](NC(=O)c2nonc2C2CC2)C(=O)Nc2cc(CN3C[C@@H](C(F)(F)F)NC3=O)ccn2)CC1",
    "Measurement Units": "nM",
    "IC50": 25
  },
  {
    "Molecule": "CCc1nonc1C(=O)N[C@H](C(=O)Nc1cc(C(COC)N2C[C@@H](C(F)(F)F)NC2=O)ccn1)[C@H]1CC[C@H](C)CC1 (some centres not stated)",
    "Measurement Units": "nM",
    "IC50": 4
  },
  {
    "Molecule": "CCc1nonc1C(=O)NC(C(=O)Nc1cc([C@@H](COC)N2C[C@@H](C(F)(F)F)NC2=O)ccn1)C1CCC(F)CC1 (some centres not stated)",
    "Measurement Units": "nM",
    "IC50": 17
  },
  {
    "Molecule": "CCc1nocc1C(=O)N[C@H](C(=O)Nc1cc([C@@H](COC)N2C[C@@H](C(F)(F)F)NC2=O)ccn1)[C@H]1CCCC(F)(F)C1",
    "Measurement Units": "nM",
    "IC50": 51
  },
  {
    "Molecule": "CC[C@H](c1ccnc(NC(=O)[C@H](NC(=O)c2ccnn2C)[C@H]2CC[C@H](C)CC2)c1)N1C[C@@H](C(F)(F)F)NC1=O",
    "Measurement Units": "nM",
    "IC50": 6
  }
]

What does the data say about its IC50? Entry: CCc1ncoc1C(=O)N[C@H](C(=O)Nc1cc(C[C@H]2C[C@@H](C(F)(F)F)NC2=O)ccn1)C1CCC(F)(F)CC1
465

What does the data say about its IC50? Entry: COCC(NC(=O)CCC(F)(F)F)c1ccnc(NC(=O)[C@@H](NC(=O)c2ccnn2C(C)C)C2CCC(F)(F)CC2)c1 (some centres not stated)
1360

---

Collected pIC50 values appear next to each entry.
- Assay Method Text: Inhibition of human IL-17A binding to recombinant human Fc-tagged IL-17RA preincubated with IL-17A for 30 mins followed by receptor addition and measured after 90 mins by AlphaLISA plate reader analysis
Recall that pIC50 is obtained by taking minus log10 of the concentration measured in molar.

Answered examples (3):
[
  {
    "Compound": "COCC(c1ccnc(NC(=O)[C@@H](NC(=O)c2nonc2C2CC2)[C@H]2CC[C@H](C)CC2)c1)N1C[C@@H](C(F)(F)F)NC1=O (some centres undefined)",
    "pIC50": 7.96
  },
  {
    "Compound": "Cn1nccc1C(=O)N[C@H](C(=O)Nc1cc(OC2CCNC2=O)ccn1)[C@H]1CC[C@H](C)CC1 (some centres undefined)",
    "pIC50": 5.05
  },
  {
    "Compound": "CC1(C)CN(Cc2ccnc(NC(=O)[C@@H](NC(=O)c3nonc3C3CC3)[C@H]3CC[C@H](C)CC3)c2)C(=O)N1",
    "pIC50": 6.98
  }
]

What does the data say about its pIC50? Entry: CC(C)n1nccc1C(=O)N[C@H](C(=O)Nc1cc(O[C@@H]2C[C@@H](C(F)(F)F)NC2=O)ccn1)[C@H]1CC[C@H](C)CC1
5.92

---

- Assay Method Text: Inhibition of human IL-17A binding to recombinant human Fc-tagged IL-17RA preincubated with IL-17A for 30 mins followed by receptor addition and measured after 90 mins by AlphaLISA plate reader analysis
Outcome Measure: IC50

[
  {
    "Input Smiles": "CCC[C@H](c1ccnc(NC(=O)[C@@H](NC(=O)c2nocc2CC)C2CCC(F)(F)CC2)c1)N1C[C@@H](C(F)(F)F)NC1=O",
    "IC50": "18 nM"
  },
  {
    "Input Smiles": "CC(C)(C)OC(=O)N[C@H](C(=O)Nc1cc(CN2C[C@@H](C(F)(F)F)NC2=O)ccn1)[C@H]1CC[C@H](C)CC1",
    "IC50": "148 nM"
  }
]

Proceeding to the next compound to report its IC50.
What does the data say about its IC50? Entry: CCc1nonc1C(=O)N[C@H](C(=O)Nc1cc([C@@H](COC)N2CC(F)(F)CNC2=O)ccn1)C1CCC(F)(F)CC1
19 nM
